Here, each record is paired with measured Avg. IC50, human hemolysis assay data.
Measured on: human C5 protein (human, UniProt P01031 19-673; P01031 678-1676)
Test protocol: cell-based or functional assay
Positions of bridges follow the written chain, without caps; N, C: chain ends. Non-standard residues stand in square brackets, D forms with d. Primed or numbered codes have the meaning given here. *: point of attachment. mXylyl(3) = bridging moiety between the two residues given in brackets; m‑xylyl = bridging moiety between the two residues given in brackets; Trp(7-aza) = N[C@@H](Cc1c[nH]c2ncccc12)C(=O)O; mXylyl(4) = bridging moiety between residues; NMeD = CN[C@@H](CC(=O)O)C(=O)O; dPhg = N[C@@H](C(=O)O)c1ccccc1; Chg = N[C@H](C(=O)O)C1CCCCC1; Phg = N[C@H](C(=O)O)c1ccccc1; Tle = CC(C)(C)[C@H](N)C(=O)O; NMeS = CN[C@@H](CO)C(=O)O; Heptanoyl = CCCCCCC(=O)*; Nva = CCC[C@H](N)C(=O)O

The reported Avg. IC50, human hemolysis assay of the binder Ac-CVERFC[NMeD][Tle]Y[Trp(7-aza)]EYP[Chg][Nva]-NH2 (linker 1-6 via m‑xylyl) [R3172] was 0.012 µM

Reported Avg. IC50, human hemolysis assay ( Ac-CVERFCA[Tle]Y[Trp(7-aza)]EYP[Phg][Nva]-NH2 (linker 1-6 via m‑xylyl) [R3157] ) = 0.0845 µM

Per the records, this binder ( Ac-YENY[dW]EYP[Phg][Nva]-NH2 (SMILES CCC[C@H](NC(=O)[C@@H](NC(=O)[C@@H]1CCCN1C(=O)[C@H](Cc1ccc(O)cc1)NC(=O)[C@H](CCC(=O)O)NC(=O)[C@@H](Cc1c[nH]c2ccccc12)NC(=O)[C@H](Cc1ccc(O)cc1)NC(=O)[C@H](CC(N)=O)NC(=O)[C@H](CCC(=O)O)NC(=O)[C@H](Cc1ccc(O)cc1)NC(C)=O)c1ccccc1)C(N)=O) [R3119] ) has Avg. IC50, human hemolysis assay equal to > 100 µM

// recorded Avg. IC50, human hemolysis assay for Ac-[Nva]C[Phg]T[Trp(7-aza)]EY[NMeS]AC[Nva]-NH2 (linker 2-10 via mXylyl(4)) [R3038] : 0.14 µM

For reference, reported Avg. IC50, human hemolysis assay for Heptanoyl-[Nva]C[dPhg]T[Trp(7-aza)]EY[NMeS]AC[Nva]-NH2 (linker 2-10 via mXylyl(3)) [R3136] stands at > 50 µM
